target: Carbonic anhydrase 1 (Homo sapiens); experiment: Inhibition of recombinant human carbonic anhydrase 1 incubated for 6 hrs prior to testing measured for 10 to 100 secs by phenol red-based stopped-flow CO2 hydration assay
Sequence (P00915 whole entry): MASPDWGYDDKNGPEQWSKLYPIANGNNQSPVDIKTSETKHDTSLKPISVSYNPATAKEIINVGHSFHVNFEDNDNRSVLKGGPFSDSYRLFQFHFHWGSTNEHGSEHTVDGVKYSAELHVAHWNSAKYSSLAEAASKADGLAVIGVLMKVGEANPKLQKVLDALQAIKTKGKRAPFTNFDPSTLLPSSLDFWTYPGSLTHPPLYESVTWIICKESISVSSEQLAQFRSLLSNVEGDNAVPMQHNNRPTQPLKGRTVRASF
attribute_measured: Ki

1. O=S1(=O)C=Cc2cc(-c3cc(Cl)cc(Cl)c3)cnc2O1 > 100 µM
2. O=S1(=O)C=Cc2cc(-c3ccccc3)cnc2O1 > 100 µM
3. O=S1(=O)C=Cc2cc(-c3ccc(Cl)cc3)cnc2O1 > 100 µM
4. COc1ccc(-c2cnc3c(c2)C=CS(=O)(=O)O3)cc1 > 100 µM
5. O=S1(=O)C=Cc2cccnc2O1 64.1 µM
6. O=S1(=O)C=Cc2cc(-c3ccc(-c4ccccc4)cc3)cnc2O1 > 100 µM
7. O=S1(=O)C=Cc2cc(-c3ccc(OC(F)(F)F)cc3)cnc2O1 > 100 µM
8. COc1cccc(-c2cnc3c(c2)C=CS(=O)(=O)O3)c1 > 100 µM

---

molecular target: Carbonic anhydrase 9 (Homo sapiens); test: Inhibition of recombinant human carbonic anhydrase 9 incubated for 6 hrs prior to testing measured for 10 to 100 secs by phenol red-based stopped-flow CO2 hydration assay
Checkbox rule: Ki lower than 90 nM = TRUE; Ki not lower than 90 nM = FALSE.

1. O=S1(=O)C=Cc2cc(-c3cc(Cl)cc(Cl)c3)cnc2O1 TRUE
2. O=S1(=O)C=Cc2cc(-c3ccc(-c4ccccc4)cc3)cnc2O1 FALSE
3. O=S1(=O)C=Cc2cc(-c3ccc(Cl)cc3)cnc2O1 TRUE
4. COc1ccc(-c2cnc3c(c2)C=CS(=O)(=O)O3)cc1 TRUE
5. CC(C)(C)c1ccc(-c2cnc3c(c2)C=CS(=O)(=O)O3)cc1 TRUE
6. O=S1(=O)C=Cc2cccnc2O1 FALSE
7. O=S1(=O)C=Cc2cc(-c3ccccc3)cnc2O1 FALSE
8. O=S1(=O)C=Cc2cc(-c3ccc(OC(F)(F)F)cc3)cnc2O1 FALSE
9. O=S1(=O)C=Cc2cc(-c3ccc(C(F)(F)F)cc3)cnc2O1 TRUE
10. COc1cccc(-c2cnc3c(c2)C=CS(=O)(=O)O3)c1 FALSE
11. O=S1(=O)C=Cc2cc(-c3cccc4ccccc34)cnc2O1 FALSE

---

test system: A549; test: Cytotoxicity against human A549 cells assessed as reduction in cell viability incubated for 48 hrs by MTT assay; assay type: functional, cell-based; conditions: A549, 48 h
pIC50: −log10 of the molar value.
attribute_measured: pIC50

1. O=S1(=O)C=Cc2cc(-c3cc(Cl)cc(Cl)c3)cnc2O1 4.85
2. O=S1(=O)C=Cc2cc(-c3ccc(C(F)(F)F)cc3)cnc2O1 4.11
3. CC(C)(C)c1ccc(-c2cnc3c(c2)C=CS(=O)(=O)O3)cc1 3.83

---

system: HeLa; experiment: Cytotoxicity against human HeLa cells assessed as reduction in cell viability incubated for 48 hrs by MTT assay; assay type: functional, cell-based
In this section, each of the compounds is paired with its reported IC50.
attribute_measured: IC50 (µM)

1) CC(C)(C)c1ccc(-c2cnc3c(c2)C=CS(=O)(=O)O3)cc1 171
2) O=S1(=O)C=Cc2cc(-c3cc(Cl)cc(Cl)c3)cnc2O1 4.8
3) O=S1(=O)C=Cc2cc(-c3ccc(C(F)(F)F)cc3)cnc2O1 42

Reference source for all entries: ChEMBL document CHEMBL4680262
